# SYSTEM TESTED: T1, PriL-CTD (Saccharomyces cerevisiae, UniProt P20457 316-512, del381-383)
# T1 sequence: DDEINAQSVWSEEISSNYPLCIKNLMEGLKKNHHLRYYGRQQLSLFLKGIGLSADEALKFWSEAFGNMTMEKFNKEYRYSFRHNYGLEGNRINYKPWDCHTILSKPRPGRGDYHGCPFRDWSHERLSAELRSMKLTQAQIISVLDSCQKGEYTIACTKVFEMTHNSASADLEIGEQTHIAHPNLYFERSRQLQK
# TEST NAME: fluorescence anisotropy; 80 nM DNA; Buffer F: 20 mM HEPES pH 6.8, 150 mM KCl, 1 mM EDTA, 25 C; SPR in buffer F + 0.005% P20, 25 C
# MEASUREMENT CONDITIONS: protein: recombinant; tags: N-terminal His6, removed by TEV; label: 5' fluorescein; single strand
ATTRIBUTE MEASURED: Kd (µM)
Please state the figure in µM; there is no need to write the unit.

QUERY: Determine from records and report Kd for GGTGAGAGGAGAATGGAAGT (ssDNA) [ssDNA 20mer (fluorescein)]
RESULT: 70

These entries and their values trace back to paper PMC2852410.
